- System: RARa:RXR (NR concentration 270 nM, RXRa partner concentration 90 nM)
- Assay Protocol: PBM binding z-score (relative to random genomic background probes); higher = stronger binding; sequences stand for … in GC…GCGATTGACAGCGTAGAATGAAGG
Use t when the recorded PBM binding z-score is no lower than 2; use f when it is lower.

Answer whether PBM binding z-score of TCATATAGTTAAATGCTAGGTGAAAGTCCGATCT is greater than or equal to 2.
f

Decide: PBM binding z-score of TCTAGTAGTTGATTAGGGCAACCGAAACAGCGGA >= 2?
f

Could you please find out whether AGTCAAAGTTCATCTCGGTAACGTAAGATATGCT has PBM binding z-score that meets 2 or exceeds it?
t

Please tell me: is the sequence CCTCGGAGGACAGAAGGTCAGAGCTGTCCGCTTT at or over 2 in terms of PBM binding z-score?
f

Assess whether reported PBM binding z-score for TCTTGTAGATCAATAGAGGTTAAGAATGTGCGCT sits at 2 or higher.
f

Decide: PBM binding z-score of CCAGACAGGTTAAAGGTAACTCAGTCTGGTACGC >= 2?
t

Does the reported PBM binding z-score for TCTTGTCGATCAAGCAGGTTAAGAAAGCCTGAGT fall at or above the 2 mark?
f

Could you tell me if the measured PBM binding z-score of TCGAGTAGGTTAGTCGGGGCATTCATCCAACATA reaches 2 or more?
f

Textbook exercise: given the entry CATACAGGGTCAGCTAGGCCAGCGTAGGGACGGC , state whether its PBM binding z-score is greater than or equal to 2.
t

Assess whether reported PBM binding z-score for AGAATGAGGTTATACGTGGATCAGGGAAGAAAGT sits at 2 or higher.
f

PBM binding z-score >= 2 for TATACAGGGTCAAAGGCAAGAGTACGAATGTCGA ?
t

Does the sequence TCTCGGAGGACACGAAGGCCAGAGCTTTCCAGAG have recorded PBM binding z-score that is 2 or more?
f

Record AGTCAACGTTCACTAGGTAACGTAAGATTCAGCT ; criterion: PBM binding z-score no lower than 2. Met?
f

Does the sequence GCTACCAGGCCATTTGGGTCACTCAATGACGGGC have recorded PBM binding z-score that is 2 or more?
f

Say whether TAGCCTAGGTCATTGAGCCAGTATAGTACGCATC shows PBM binding z-score of 2 or more.
t

Please tell me: is the sequence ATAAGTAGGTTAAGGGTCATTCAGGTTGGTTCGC at or over 2 in terms of PBM binding z-score?
t

Record CCTCCTGGGCCAAAGGTCATTGATTCCAATGCTC ; criterion: PBM binding z-score no lower than 2. Met?
t

Dear colleague, could you confirm whether TCGCGTAGGTTAGTCGGGGCATTCAGCCAACATA has PBM binding z-score at or above 2?
f

hey, is PBM binding z-score for this one >= 2? CCTGCTAGGTCACTGGTCAGCTAAAGCAGCTCGC
t

API: above_or_equal(metric=PBM binding z-score, cutoff=2) for item CCTAGCAGGCCACTCTGGGTCACTCAAGGCTTGA
f

Check the entry TCTATTAGTTGCAGGGCAACCGACGAGTCCGTTT : does PBM binding z-score equal or exceed 2?
f

Check this sequence for PBM binding z-score at or above 2: ATCTCTAGGTAAAGTTCAGTGAAAGATCGATAGA
f

Hello, I need to know if AAAGACAGGTGATGAAGGTAACTCAGGCTATCAT has measured PBM binding z-score not below 2. Thanks!
f

Test whether the sequence CGTCCAAGGTCAGAGAGGTAAGTGAATGCCGAGT records PBM binding z-score of 2 or higher.
t

Check the entry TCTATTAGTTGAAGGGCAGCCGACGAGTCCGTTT : does PBM binding z-score equal or exceed 2?
f

API: above_or_equal(metric=PBM binding z-score, cutoff=2) for item TTTGCTAGGTCAACGATGGTCAGCTAATCTGCTA
t

Quick check: does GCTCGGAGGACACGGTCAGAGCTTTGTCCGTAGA have PBM binding z-score greater than or equal to 2?
f

Answer whether PBM binding z-score of TCGAATAGGTTACCAATGGGGCATTCAGCTTTCT is greater than or equal to 2.
f

Does CCTACTGGGCCAAGAAGGTCATTGATGCCGATAA have a reported PBM binding z-score of at least 2?
t

Hi, just wondering whether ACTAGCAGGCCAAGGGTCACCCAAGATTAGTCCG shows PBM binding z-score of 2 or higher.
t

# bool: PBM binding z-score of GCAGACAGGTGACACGCAGGTAACTCAGGGTGGC >= 2
f

# bool: PBM binding z-score of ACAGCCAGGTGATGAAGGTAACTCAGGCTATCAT >= 2
f

Does GCTAGCAGCCCATTTGGGTCACTCAATGACGGGC have a reported PBM binding z-score of at least 2?
f

I'd appreciate it if you could say whether TTCCCAAGGTGAAAGGTCGTTGATGCACGCCTTG has PBM binding z-score at least equal to 2.
t

Given the entry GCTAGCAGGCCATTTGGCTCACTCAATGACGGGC , answer whether its PBM binding z-score meets or surpasses 2.
f

State whether the measured PBM binding z-score reaches 2, counting equality as reaching it, for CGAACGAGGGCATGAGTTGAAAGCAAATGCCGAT
f

Identify whether the reported PBM binding z-score of the following sequence is 2 or greater: TCGTATAGGTAAAGGTGAAAGTCGAACGATATGA
f

Would you say TTACCAAGGTGAAACGTCGTTGATGCACGCCTTG shows PBM binding z-score at minimum 2?
f

Determine whether this sequence has PBM binding z-score no lower than 2: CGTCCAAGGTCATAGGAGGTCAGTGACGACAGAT
t

// inclusive: PBM binding z-score at least 2? input: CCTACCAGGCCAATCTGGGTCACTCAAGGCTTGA
f

# check: PBM binding z-score of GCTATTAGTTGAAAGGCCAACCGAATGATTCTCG is greater than or equal to 2
f

Does TCGAGTAGGTTACGGGCATTCAGAATGGCGTCGA have a reported PBM binding z-score of at least 2?
f

Decide: is the reported value of PBM binding z-score for ATACCAAGGTGATCGTGACGTCGTTGATACTAAC equal to or greater than 2?
f

Identify whether the reported PBM binding z-score of the following sequence is 2 or greater: AGTCAAAGTTCACTCGGTAACGTAAGATTCAGCT
t
